# Test system: P-glycoprotein (P-gp, MDR1)
# assay_overview: Permeability assay, bidirectional transport, efflux ratio (Example 30, Table 34)
# Type: in vitro ADME, canine
# assay_context: dog, MDCK-MDR1, pH 7.4; read-out: MDCK-MDR efflux ratio
experimental_endpoint: efflux ratio at 3 μM
Write the number on its own, no unit after it.

-- ask State the recorded efflux ratio at 3 μM for this entry: CCCCCOc1cc(N2CC[C@@H](C)N(Cc3cccc4c3c(Cl)cn4CC(=O)N(C)C)C2=O)ccc1OC [SC0110]
-- reply 18

-- ask State the recorded efflux ratio at 3 μM for this entry: CCCCCOc1cc(N2CCCN(Cc3ccnc4c3c(Cl)cn4CC(=O)N3C[C@H]4C[C@@H]3CO4)C2=O)ccc1OC [CU0510]
-- reply 71

-- ask State the recorded efflux ratio at 3 μM for this entry: COc1cc(CC(=O)N(C)C)ccc1CN1CCCN(c2ccc(OC)c(OCCCC3CC3)c2)C1=O [CU0555]
-- reply 15

-- ask State the recorded efflux ratio at 3 μM for this entry: CCCCCOc1cc(N2CCCN(Cc3ccc(CNC(C)=O)cc3OC)C2=O)ccc1OC [CU0160]
-- reply 61

-- ask State the recorded efflux ratio at 3 μM for this entry: COc1cc(CC(=O)N2CCOCC2)ccc1CN1CCCN(c2ccc(OC)c(OCCCC(C)(F)F)c2)C1=O [CU0145]
-- reply 83

-- ask State the recorded efflux ratio at 3 μM for this entry: CCCCCOc1cc(N2CC[C@H](C)N(Cc3ccnc4c3c(Cl)cn4CC(=O)N3CC[C@H](N4CCOCC4)C3)C2=O)ccc1OC [SC0100]
-- reply 62

-- ask State the recorded efflux ratio at 3 μM for this entry: CCCCCOc1cc(N2CCCN(Cc3ccnc4c3c(Cl)cn4CC(=O)N(C)C)C2=O)cnc1OC [CU0616]
-- reply 18

* * *

So I've got a bunch of molecules here, and I need their log10(IC50) values.
# study_target: Human C5 (Homo sapiens)
# Construct: purchased Complement Technology
# Sequence (P01031 19-1676): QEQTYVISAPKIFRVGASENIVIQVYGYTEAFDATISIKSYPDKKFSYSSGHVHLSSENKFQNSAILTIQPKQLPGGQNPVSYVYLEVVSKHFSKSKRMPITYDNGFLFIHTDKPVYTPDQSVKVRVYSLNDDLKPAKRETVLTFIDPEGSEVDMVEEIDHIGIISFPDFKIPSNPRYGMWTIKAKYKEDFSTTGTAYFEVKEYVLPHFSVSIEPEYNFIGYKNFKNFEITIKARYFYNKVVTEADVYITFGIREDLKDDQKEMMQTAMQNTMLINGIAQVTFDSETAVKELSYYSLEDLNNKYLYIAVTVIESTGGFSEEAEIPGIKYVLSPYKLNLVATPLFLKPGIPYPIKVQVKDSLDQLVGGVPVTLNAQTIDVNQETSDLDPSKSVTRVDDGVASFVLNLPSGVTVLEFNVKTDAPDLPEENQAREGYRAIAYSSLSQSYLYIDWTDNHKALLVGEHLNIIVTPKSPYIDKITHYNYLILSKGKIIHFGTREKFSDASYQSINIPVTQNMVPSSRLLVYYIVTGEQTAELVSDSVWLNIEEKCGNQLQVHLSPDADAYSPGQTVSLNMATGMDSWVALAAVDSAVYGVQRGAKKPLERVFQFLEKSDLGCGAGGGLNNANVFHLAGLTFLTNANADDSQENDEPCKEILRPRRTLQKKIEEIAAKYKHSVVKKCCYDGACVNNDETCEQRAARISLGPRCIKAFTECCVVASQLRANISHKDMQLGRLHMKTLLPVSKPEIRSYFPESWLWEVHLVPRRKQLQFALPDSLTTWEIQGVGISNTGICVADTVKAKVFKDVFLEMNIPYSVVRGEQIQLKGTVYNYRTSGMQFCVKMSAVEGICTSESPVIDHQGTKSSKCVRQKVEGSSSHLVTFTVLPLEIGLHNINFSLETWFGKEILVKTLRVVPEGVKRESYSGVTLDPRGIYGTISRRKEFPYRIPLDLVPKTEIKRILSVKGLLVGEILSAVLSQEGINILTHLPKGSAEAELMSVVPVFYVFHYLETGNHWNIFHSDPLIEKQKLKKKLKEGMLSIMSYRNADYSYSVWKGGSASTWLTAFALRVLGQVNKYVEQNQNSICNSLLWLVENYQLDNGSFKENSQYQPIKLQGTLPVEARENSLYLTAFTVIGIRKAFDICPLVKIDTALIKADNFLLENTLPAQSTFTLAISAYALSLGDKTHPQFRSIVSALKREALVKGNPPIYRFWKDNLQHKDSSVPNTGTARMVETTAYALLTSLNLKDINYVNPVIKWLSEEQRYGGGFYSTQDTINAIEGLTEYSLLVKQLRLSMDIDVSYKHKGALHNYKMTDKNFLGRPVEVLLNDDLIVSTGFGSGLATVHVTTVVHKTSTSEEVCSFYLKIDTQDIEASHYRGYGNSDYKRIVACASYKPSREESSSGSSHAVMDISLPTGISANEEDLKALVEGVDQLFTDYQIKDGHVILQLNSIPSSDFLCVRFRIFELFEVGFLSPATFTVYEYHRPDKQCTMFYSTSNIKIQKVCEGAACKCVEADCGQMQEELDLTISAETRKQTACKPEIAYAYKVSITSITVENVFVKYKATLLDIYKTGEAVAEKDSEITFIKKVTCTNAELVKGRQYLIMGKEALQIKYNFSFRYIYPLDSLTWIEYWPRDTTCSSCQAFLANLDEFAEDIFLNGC
# assay_overview: Hemolysis assay, luminescent, classical complement pathway (Example 4, Table 7)
# Format: cell-based
# assay_context: sheep EA cells, 1.5% C5-depleted human serum, 0.5 nM human C5, luminescence readout
Units before log transform: µM; reported quantity: IC50; transform: log10.

-- ask State the recorded log10(IC50) for this entry: CCCCCOc1cc(NC(=O)N(CC(=O)N2CCOCC2)Cc2cc(F)ccc2OC)ccc1OC
-- reply 0.33

-- ask State the recorded log10(IC50) for this entry: CCCCCOc1cc(NC(=O)N(CC(=O)N(C)C)Cc2cc(F)ccc2OC)ccc1OC
-- reply 0.28

-- ask State the recorded log10(IC50) for this entry: CCCCCOc1cc(NC(=O)N(CCC(=O)O)Cc2cc(F)ccc2OC)ccc1OC
-- reply -0.76

-- ask State the recorded log10(IC50) for this entry: COc1ccc(NC(=O)N[C@@H](CO)c2ccccc2OC)cc1OCCCC(C)C
-- reply -1.92

-- ask State the recorded log10(IC50) for this entry: CCCCCOc1cc(NC(=O)N(CC(=O)NCc2cccnc2)Cc2cc(F)ccc2OC)ccc1OC
-- reply 0.11

-- ask State the recorded log10(IC50) for this entry: CCCCCOc1cc(NC(=O)N(CCC(=O)N(C)C)Cc2cc(F)ccc2OC)ccc1OC
-- reply -0.70

-- ask State the recorded log10(IC50) for this entry: CCCCCOc1cc(NC(=O)N(CC(=O)NCCN2CCCC2)Cc2cc(F)ccc2OC)ccc1OC
-- reply 0.31

-- ask State the recorded log10(IC50) for this entry: COc1ccccc1CNC(=O)Nc1ccc(OC)c(OCCCC(C)C)c1
-- reply -1.42

-- ask State the recorded log10(IC50) for this entry: CCCCCOc1cc(NC(=O)N2CCC[C@@H]2c2ccccc2Cl)c(CNC(=O)/C=C/CN(C)C)cc1OC
-- reply -0.62

-- ask State the recorded log10(IC50) for this entry: CCCCCOc1cc(NC(=O)N(CC(=O)O)Cc2cc(F)ccc2OC)ccc1OC
-- reply -0.12
